- tested.target: UniProt:P15735
- Sequence (P15735 whole entry, looked up): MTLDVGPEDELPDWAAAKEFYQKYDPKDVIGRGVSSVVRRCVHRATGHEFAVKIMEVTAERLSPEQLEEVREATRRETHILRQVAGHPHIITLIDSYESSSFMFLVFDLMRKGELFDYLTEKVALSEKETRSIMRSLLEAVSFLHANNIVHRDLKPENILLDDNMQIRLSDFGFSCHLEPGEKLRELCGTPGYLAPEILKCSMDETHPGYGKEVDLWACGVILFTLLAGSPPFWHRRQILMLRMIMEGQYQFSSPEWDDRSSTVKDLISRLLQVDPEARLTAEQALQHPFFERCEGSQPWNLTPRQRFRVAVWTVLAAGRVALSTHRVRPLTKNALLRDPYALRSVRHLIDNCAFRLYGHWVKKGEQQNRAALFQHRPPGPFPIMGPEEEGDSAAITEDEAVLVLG
- test.name: KINOMEscan competition binding
- experimental.context: compound 1.0 µM
property: kinase still bound, per cent of control

* CN(C)C/C=C/C(=O)Nc1cccc(C(=O)Nc2ccc(Nc3nccc(/C(C#N)=C4\Nc5ccccc5S4)n3)cc2)c1 | 100%
* Cc1cc(NC(=O)c2cccc(NC(=O)/C=C/CN(C)C)c2)ccc1Nc1nccc(-c2cccnc2)n1 | 89%
* CN(C)C/C=C/C(=O)Nc1cccc(C(=O)Nc2ccc(Nc3nccc(-c4cccnc4)n3)cc2)c1 | 64%
* CN(C)C/C=C/C(=O)Nc1cccc(C(=O)Nc2ccc(Nc3nccc(-c4c(-c5ccccc5)nn5ccccc45)n3)cc2)c1 | 100%

###

- tested.target: LYN (human)
- test.name: KINOMEscan competition binding
- experimental.context: compound 1.0 µM
property: kinase still bound, per cent of control (%)

- CN(C)C/C=C/C(=O)Nc1cccc(C(=O)Nc2ccc(Nc3nccc(/C(C#N)=C4\Nc5ccccc5S4)n3)cc2)c1: 94
- Cc1cc(NC(=O)c2cccc(NC(=O)/C=C/CN(C)C)c2)ccc1Nc1nccc(-c2cccnc2)n1: 87
- CN(C)C/C=C/C(=O)Nc1cccc(C(=O)Nc2ccc(Nc3nccc(-c4c(-c5ccccc5)nn5ccccc45)n3)cc2)c1: 58
- CN(C)C/C=C/C(=O)Nc1cccc(C(=O)Nc2ccc(Nc3nccc(-c4cccnc4)n3)cc2)c1: 86

###

- tested.target: MYLK4 (human)
- test.name: KINOMEscan competition binding
property: Kd

* Cc1cc(NC(=O)c2cccc(NC(=O)/C=C/CN(C)C)c2)ccc1Nc1nccc(-c2cccnc2)n1 | 4 µM

###

- tested.target: MAP3K6 (human) (UniProt O95382)
- test.name: KINOMEscan competition binding
- experimental.context: compound 1.0 µM
kinase still bound, per cent of control for assorted compounds
property: kinase still bound, per cent of control

* Cc1cc(NC(=O)c2cccc(NC(=O)/C=C/CN(C)C)c2)ccc1Nc1nccc(-c2cccnc2)n1 | 92%
* CN(C)C/C=C/C(=O)Nc1cccc(C(=O)Nc2ccc(Nc3nccc(-c4cccnc4)n3)cc2)c1 | 100%
* CN(C)C/C=C/C(=O)Nc1cccc(C(=O)Nc2ccc(Nc3nccc(/C(C#N)=C4\Nc5ccccc5S4)n3)cc2)c1 | 100%
* CN(C)C/C=C/C(=O)Nc1cccc(C(=O)Nc2ccc(Nc3nccc(-c4c(-c5ccccc5)nn5ccccc45)n3)cc2)c1 | 100%

###

- tested.target: CSNK1G2 (human) (UniProt P78368)
- Sequence (P78368 whole entry, looked up): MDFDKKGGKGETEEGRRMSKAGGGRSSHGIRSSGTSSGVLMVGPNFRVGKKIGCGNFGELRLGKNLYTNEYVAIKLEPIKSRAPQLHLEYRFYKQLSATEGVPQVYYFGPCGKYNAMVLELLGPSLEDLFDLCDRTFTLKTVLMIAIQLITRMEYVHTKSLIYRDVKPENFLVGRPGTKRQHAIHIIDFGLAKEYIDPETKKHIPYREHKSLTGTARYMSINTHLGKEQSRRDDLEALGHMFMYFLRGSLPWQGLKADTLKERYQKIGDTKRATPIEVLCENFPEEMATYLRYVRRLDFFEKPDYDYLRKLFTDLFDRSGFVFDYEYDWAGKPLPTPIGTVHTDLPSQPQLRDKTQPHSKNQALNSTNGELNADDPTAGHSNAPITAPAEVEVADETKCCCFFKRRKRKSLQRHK
pIC50: −log10 of the molar value.
property: pIC50

• CN(C)C/C=C/C(=O)Nc1cccc(C(=O)Nc2ccc(Nc3nccc(-c4c(-c5ccccc5)nn5ccccc45)n3)cc2)c1 = 6.79

###

- Test system: FLT3 (human), P36888 [ITD]
- Sequence (P36888 whole entry, looked up, change not shown): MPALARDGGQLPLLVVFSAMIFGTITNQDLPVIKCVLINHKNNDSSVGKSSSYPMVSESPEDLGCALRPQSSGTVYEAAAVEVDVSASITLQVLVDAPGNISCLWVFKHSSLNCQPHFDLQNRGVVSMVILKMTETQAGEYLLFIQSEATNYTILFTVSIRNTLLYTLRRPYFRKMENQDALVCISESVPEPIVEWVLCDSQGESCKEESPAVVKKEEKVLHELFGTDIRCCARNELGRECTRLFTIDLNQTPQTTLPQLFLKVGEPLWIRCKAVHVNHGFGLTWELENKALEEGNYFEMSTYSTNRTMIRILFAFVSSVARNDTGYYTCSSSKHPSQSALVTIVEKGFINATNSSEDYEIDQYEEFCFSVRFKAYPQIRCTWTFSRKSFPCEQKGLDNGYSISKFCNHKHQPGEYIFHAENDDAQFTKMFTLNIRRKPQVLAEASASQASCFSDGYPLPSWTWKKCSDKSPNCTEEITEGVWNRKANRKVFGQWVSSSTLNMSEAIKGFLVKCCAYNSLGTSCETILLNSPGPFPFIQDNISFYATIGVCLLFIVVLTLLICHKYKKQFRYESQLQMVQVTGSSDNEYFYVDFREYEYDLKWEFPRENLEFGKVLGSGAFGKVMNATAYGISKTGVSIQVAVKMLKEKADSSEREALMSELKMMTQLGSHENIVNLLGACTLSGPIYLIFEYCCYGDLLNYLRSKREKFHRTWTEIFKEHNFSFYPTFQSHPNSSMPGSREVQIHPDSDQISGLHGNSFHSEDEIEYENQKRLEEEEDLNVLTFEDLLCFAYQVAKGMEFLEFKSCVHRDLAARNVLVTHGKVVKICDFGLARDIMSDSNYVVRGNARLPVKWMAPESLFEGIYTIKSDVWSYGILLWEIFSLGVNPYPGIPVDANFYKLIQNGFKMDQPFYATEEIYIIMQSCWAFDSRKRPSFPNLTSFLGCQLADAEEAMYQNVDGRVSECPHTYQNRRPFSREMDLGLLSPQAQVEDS
- test.name: KINOMEscan competition binding
- experimental.context: compound 1.0 µM
property: kinase still bound, per cent of control (%)

* CN(C)C/C=C/C(=O)Nc1cccc(C(=O)Nc2ccc(Nc3nccc(/C(C#N)=C4\Nc5ccccc5S4)n3)cc2)c1 | 57
* Cc1cc(NC(=O)c2cccc(NC(=O)/C=C/CN(C)C)c2)ccc1Nc1nccc(-c2cccnc2)n1 | 50
* CN(C)C/C=C/C(=O)Nc1cccc(C(=O)Nc2ccc(Nc3nccc(-c4c(-c5ccccc5)nn5ccccc45)n3)cc2)c1 | 11
* CN(C)C/C=C/C(=O)Nc1cccc(C(=O)Nc2ccc(Nc3nccc(-c4cccnc4)n3)cc2)c1 | 16

###

- tested.target: CLK1 (human) (UniProt P49759)
- Sequence (P49759 whole entry, looked up): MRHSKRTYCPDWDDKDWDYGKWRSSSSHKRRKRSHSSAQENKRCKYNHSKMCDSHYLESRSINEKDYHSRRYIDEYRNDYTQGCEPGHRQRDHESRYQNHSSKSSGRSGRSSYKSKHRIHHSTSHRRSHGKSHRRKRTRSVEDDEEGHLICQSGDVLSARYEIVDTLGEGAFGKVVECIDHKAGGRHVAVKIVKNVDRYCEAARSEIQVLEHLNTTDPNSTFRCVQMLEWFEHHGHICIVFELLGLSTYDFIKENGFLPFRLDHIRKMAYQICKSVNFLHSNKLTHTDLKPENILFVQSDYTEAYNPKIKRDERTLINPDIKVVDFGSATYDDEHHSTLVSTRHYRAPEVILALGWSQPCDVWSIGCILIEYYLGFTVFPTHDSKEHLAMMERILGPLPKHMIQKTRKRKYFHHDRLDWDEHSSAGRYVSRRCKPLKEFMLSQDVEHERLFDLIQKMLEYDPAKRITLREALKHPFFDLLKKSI
- test.name: KINOMEscan competition binding
- experimental.context: compound 1.0 µM
Reported kinase still bound, per cent of control values for a set of compounds
property: kinase still bound, per cent of control (%)

* CN(C)C/C=C/C(=O)Nc1cccc(C(=O)Nc2ccc(Nc3nccc(-c4c(-c5ccccc5)nn5ccccc45)n3)cc2)c1 | 95
* CN(C)C/C=C/C(=O)Nc1cccc(C(=O)Nc2ccc(Nc3nccc(-c4cccnc4)n3)cc2)c1 | 12
* CN(C)C/C=C/C(=O)Nc1cccc(C(=O)Nc2ccc(Nc3nccc(/C(C#N)=C4\Nc5ccccc5S4)n3)cc2)c1 | 42
* Cc1cc(NC(=O)c2cccc(NC(=O)/C=C/CN(C)C)c2)ccc1Nc1nccc(-c2cccnc2)n1 | 100

###

- tested.target: MLTK (human) (UniProt Q9NYL2)
- Sequence (Q9NYL2 whole entry, looked up): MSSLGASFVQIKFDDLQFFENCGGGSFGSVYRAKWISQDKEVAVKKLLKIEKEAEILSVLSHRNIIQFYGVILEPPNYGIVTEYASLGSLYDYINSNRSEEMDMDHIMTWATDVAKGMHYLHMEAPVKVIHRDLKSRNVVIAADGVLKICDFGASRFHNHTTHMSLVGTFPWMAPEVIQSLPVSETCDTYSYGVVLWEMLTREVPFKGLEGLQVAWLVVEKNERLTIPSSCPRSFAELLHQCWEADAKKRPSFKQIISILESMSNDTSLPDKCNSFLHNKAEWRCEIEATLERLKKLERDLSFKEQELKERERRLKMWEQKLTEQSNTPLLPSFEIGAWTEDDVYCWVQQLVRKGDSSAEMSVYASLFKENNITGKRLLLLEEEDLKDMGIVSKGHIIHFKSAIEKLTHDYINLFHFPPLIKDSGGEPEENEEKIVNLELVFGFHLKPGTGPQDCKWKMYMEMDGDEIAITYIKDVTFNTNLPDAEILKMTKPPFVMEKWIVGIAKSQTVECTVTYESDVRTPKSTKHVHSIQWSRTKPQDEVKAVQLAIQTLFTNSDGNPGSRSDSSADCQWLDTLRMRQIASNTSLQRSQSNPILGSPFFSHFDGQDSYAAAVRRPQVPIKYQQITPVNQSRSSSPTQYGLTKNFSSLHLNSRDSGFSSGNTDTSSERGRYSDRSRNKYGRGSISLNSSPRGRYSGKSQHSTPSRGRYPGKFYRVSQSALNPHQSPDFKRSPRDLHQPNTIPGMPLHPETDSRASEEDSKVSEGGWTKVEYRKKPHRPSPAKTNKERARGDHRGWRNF
- test.name: KINOMEscan competition binding
- experimental.context: compound 1.0 µM
Measured kinase still bound, per cent of control accompanies every entry in the list below.
property: kinase still bound, per cent of control (%)

• CN(C)C/C=C/C(=O)Nc1cccc(C(=O)Nc2ccc(Nc3nccc(-c4cccnc4)n3)cc2)c1 = 46
• CN(C)C/C=C/C(=O)Nc1cccc(C(=O)Nc2ccc(Nc3nccc(/C(C#N)=C4\Nc5ccccc5S4)n3)cc2)c1 = 98
• CN(C)C/C=C/C(=O)Nc1cccc(C(=O)Nc2ccc(Nc3nccc(-c4c(-c5ccccc5)nn5ccccc45)n3)cc2)c1 = 11
• Cc1cc(NC(=O)c2cccc(NC(=O)/C=C/CN(C)C)c2)ccc1Nc1nccc(-c2cccnc2)n1 = 100

###

- tested.target: MAP3K13 (human) (UniProt O43283)
- test.name: KINOMEscan competition binding
- experimental.context: compound 1.0 µM
property: kinase still bound, per cent of control (%)

* CN(C)C/C=C/C(=O)Nc1cccc(C(=O)Nc2ccc(Nc3nccc(/C(C#N)=C4\Nc5ccccc5S4)n3)cc2)c1 | 100
* Cc1cc(NC(=O)c2cccc(NC(=O)/C=C/CN(C)C)c2)ccc1Nc1nccc(-c2cccnc2)n1 | 93
* CN(C)C/C=C/C(=O)Nc1cccc(C(=O)Nc2ccc(Nc3nccc(-c4cccnc4)n3)cc2)c1 | 100
* CN(C)C/C=C/C(=O)Nc1cccc(C(=O)Nc2ccc(Nc3nccc(-c4c(-c5ccccc5)nn5ccccc45)n3)cc2)c1 | 100

###

- tested.target: CDKL2 (human) (UniProt Q92772)
- Sequence (Q92772 whole entry, looked up): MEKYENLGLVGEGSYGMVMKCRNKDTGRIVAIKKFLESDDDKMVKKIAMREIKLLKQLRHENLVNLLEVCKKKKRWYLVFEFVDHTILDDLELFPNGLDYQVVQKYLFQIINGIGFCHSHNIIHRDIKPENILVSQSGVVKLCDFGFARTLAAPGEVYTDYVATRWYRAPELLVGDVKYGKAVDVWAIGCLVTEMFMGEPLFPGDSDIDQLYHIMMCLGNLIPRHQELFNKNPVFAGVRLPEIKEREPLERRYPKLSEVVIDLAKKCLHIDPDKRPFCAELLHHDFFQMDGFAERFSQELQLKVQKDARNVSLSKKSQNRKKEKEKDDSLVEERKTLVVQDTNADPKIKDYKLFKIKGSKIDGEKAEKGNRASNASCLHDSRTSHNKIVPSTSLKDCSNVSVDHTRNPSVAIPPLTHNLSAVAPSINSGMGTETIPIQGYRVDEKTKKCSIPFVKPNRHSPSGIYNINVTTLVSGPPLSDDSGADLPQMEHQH
- test.name: KINOMEscan competition binding
- experimental.context: compound 1.0 µM
property: kinase still bound, per cent of control

- CN(C)C/C=C/C(=O)Nc1cccc(C(=O)Nc2ccc(Nc3nccc(-c4cccnc4)n3)cc2)c1: 21%
- CN(C)C/C=C/C(=O)Nc1cccc(C(=O)Nc2ccc(Nc3nccc(-c4c(-c5ccccc5)nn5ccccc45)n3)cc2)c1: 74%
- Cc1cc(NC(=O)c2cccc(NC(=O)/C=C/CN(C)C)c2)ccc1Nc1nccc(-c2cccnc2)n1: 82%
- CN(C)C/C=C/C(=O)Nc1cccc(C(=O)Nc2ccc(Nc3nccc(/C(C#N)=C4\Nc5ccccc5S4)n3)cc2)c1: 28%

###

- Test system: PIK3CA (human), P42336 [E542K]
- Sequence (P42336 whole entry E542K, looked up): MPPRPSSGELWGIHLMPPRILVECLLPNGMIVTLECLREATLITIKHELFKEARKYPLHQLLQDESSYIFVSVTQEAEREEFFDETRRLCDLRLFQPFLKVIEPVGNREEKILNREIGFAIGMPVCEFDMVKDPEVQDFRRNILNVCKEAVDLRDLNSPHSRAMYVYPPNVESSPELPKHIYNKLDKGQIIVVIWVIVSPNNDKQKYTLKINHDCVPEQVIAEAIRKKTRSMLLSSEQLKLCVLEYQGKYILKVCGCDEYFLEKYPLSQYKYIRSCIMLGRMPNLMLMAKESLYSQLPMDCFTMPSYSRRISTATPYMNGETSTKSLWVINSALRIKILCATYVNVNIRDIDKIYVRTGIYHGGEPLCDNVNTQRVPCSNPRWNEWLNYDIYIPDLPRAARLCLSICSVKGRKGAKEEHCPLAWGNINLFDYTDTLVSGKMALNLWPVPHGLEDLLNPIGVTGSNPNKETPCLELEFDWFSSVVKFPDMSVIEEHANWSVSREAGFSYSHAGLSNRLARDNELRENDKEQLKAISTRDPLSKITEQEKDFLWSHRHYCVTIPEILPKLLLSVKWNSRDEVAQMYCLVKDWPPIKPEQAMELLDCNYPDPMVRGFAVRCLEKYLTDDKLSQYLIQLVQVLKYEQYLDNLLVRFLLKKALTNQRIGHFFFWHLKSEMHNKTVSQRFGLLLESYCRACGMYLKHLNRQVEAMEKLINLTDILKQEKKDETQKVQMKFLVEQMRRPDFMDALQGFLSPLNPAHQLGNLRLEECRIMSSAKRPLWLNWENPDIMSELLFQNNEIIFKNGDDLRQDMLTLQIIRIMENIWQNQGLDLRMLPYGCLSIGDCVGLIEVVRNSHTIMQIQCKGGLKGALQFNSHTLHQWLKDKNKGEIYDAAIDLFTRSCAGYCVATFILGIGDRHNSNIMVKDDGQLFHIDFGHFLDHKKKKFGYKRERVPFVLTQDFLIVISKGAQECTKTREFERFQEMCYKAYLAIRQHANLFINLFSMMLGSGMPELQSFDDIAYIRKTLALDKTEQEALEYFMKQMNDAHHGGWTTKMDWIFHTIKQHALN
- test.name: KINOMEscan competition binding
- experimental.context: compound 1.0 µM
property: kinase still bound, per cent of control (%)

• CN(C)C/C=C/C(=O)Nc1cccc(C(=O)Nc2ccc(Nc3nccc(-c4cccnc4)n3)cc2)c1 = 82
• Cc1cc(NC(=O)c2cccc(NC(=O)/C=C/CN(C)C)c2)ccc1Nc1nccc(-c2cccnc2)n1 = 100
• CN(C)C/C=C/C(=O)Nc1cccc(C(=O)Nc2ccc(Nc3nccc(/C(C#N)=C4\Nc5ccccc5S4)n3)cc2)c1 = 100
• CN(C)C/C=C/C(=O)Nc1cccc(C(=O)Nc2ccc(Nc3nccc(-c4c(-c5ccccc5)nn5ccccc45)n3)cc2)c1 = 91

Entry source: the kinase profiling compilation of Christmann-Franck et al. (2016)
